# Tested on: 966289-007-R4-J1-PDC complex spheroid viability
# Method description: Anticancer human tumor 966289-007-R4-J1-PDC patient-derived pancreatic adenocarcinoma cell line growth inhibition [RAS]
# Measurement conditions: second compound 0.1 µM; first compound 0.316 µM; stronger effect = lower value
Measurement type: viability, T/C (%)
Just the number please, in %, no unit attached.

Compound: C=CC(=O)Nc1cc(Nc2nccc(-c3cn(C)c4ccccc34)n2)c(OC)cc1N(C)CCN(C)C + C#Cc1c(F)ccc2cc(O)cc(-c3ncc4c(N5CC6CCC(C5)N6)nc(OCC56CCCN5CC(F)C6)nc4c3F)c12
Value measured: 90.4
--
Compound: C[C@@H](NC(=O)c1ncnc(N)c1Cl)c1ncc(C(=O)Nc2cc(C(F)(F)F)c(Cl)cn2)s1 + C=CC(=O)N1CCN(c2nc(OCC3CCCN3C)nc3c(F)c(-c4nc(N)cc(C)c4C(F)(F)F)c(Cl)cc23)C(C)C1
Value measured: 123
--
Compound: CC(Nc1ccc2c(c1)OCCn1cc(N3C(=O)OCC3C(F)F)nc1-2)C(N)=O (centres undefined) + C#Cc1c(F)ccc2cc(O)cc(-c3ncc4c(N5CC6CCC(C5)N6)nc(OCC56CCCN5CC(F)C6)nc4c3F)c12
Value measured: 101
--
Compound: CCN1CCN(Cc2ccc(Nc3ncc(F)c(-c4cc(F)c5nc(C)n(C(C)C)c5c4)n3)nc2)CC1 + C=CC(=O)N1CCN(c2nc(OCC3CCCN3C)nc3c(F)c(-c4nc(N)cc(C)c4C(F)(F)F)c(Cl)cc23)C(C)C1
Value measured: 78.8
--
Compound: CCN1CCN(Cc2ccc(Nc3ncc(F)c(-c4cc(F)c5nc(C)n(C(C)C)c5c4)n3)nc2)CC1 + C#Cc1c(F)ccc2cc(O)cc(-c3ncc4c(N5CC6CCC(C5)N6)nc(OCC56CCCN5CC(F)C6)nc4c3F)c12
Value measured: 92.8
--
Compound: CC1(O)CCCC1n1c(=O)c(C(F)F)cc2cnc(NC3CCN(S(C)(=O)=O)CC3)nc21 (centres undefined) + C=CC(=O)N1CCN(c2nc(OCC3CCCN3C)nc3c(F)c(-c4nc(N)cc(C)c4C(F)(F)F)c(Cl)cc23)C(C)C1
Value measured: 28.8
--
Compound: CC(=O)OC12COC1CC(O)C1(C)C(=O)C(O)C3=C(C)C(OC(=O)C(O)C(NC(=O)OC(C)(C)C)c4ccccc4)CC(O)(C(OC(=O)c4ccccc4)C21)C3(C)C (centres undefined) + C#Cc1c(F)ccc2cc(O)cc(-c3ncc4c(N5CC6CCC(C5)N6)nc(OCC56CCCN5CC(F)C6)nc4c3F)c12
Value measured: 19.7
--
Compound: CC(=O)OC12COC1CC(O)C1(C)C(=O)C(O)C3=C(C)C(OC(=O)C(O)C(NC(=O)OC(C)(C)C)c4ccccc4)CC(O)(C(OC(=O)c4ccccc4)C21)C3(C)C (centres undefined) + C=CC(=O)N1CCN(c2nc(OCC3CCCN3C)nc3c(F)c(-c4nc(N)cc(C)c4C(F)(F)F)c(Cl)cc23)C(C)C1
Value measured: 15.2

Please examine the following record next.
-- ask Give viability, T/C for Nc1ccn(C2OC(CO)C(O)C2(F)F)c(=O)n1 (centres undefined) + C#Cc1c(F)ccc2cc(O)cc(-c3ncc4c(N5CC6CCC(C5)N6)nc(OCC56CCCN5CC(F)C6)nc4c3F)c12
-- reply 1.6

---

Each entry below lists one item and its recorded viability, T/C value.
# Test system: 966289-007-R4-J1-PDC complex spheroid viability
# Method description: Anticancer human tumor 966289-007-R4-J1-PDC cell line growth inhibition [RAS];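 note: spheroids exposed to agents for one week before readout; percent viability relative to DMSO vehicle control wells as 100%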
# Measurement conditions: second compound 0.0316 µM; first compound 0.00316 µM; stronger effect = lower value
State just the number; it will be interpreted in %.

Check out these entries, answers already filled in.
Compound: CCN1CCN(Cc2ccc(Nc3ncc(F)c(-c4cc(F)c5nc(C)n(C(C)C)c5c4)n3)nc2)CC1 + C=CC(=O)N1CCN(c2nc(OCC3CCCN3C)nc3c(F)c(-c4nc(N)cc(C)c4C(F)(F)F)c(Cl)cc23)C(C)C1
viability, T/C [%]: 116

Compound: C=CC(=O)Nc1cc(Nc2nccc(-c3cn(C)c4ccccc34)n2)c(OC)cc1N(C)CCN(C)C + C#Cc1c(F)ccc2cc(O)cc(-c3ncc4c(N5CC6CCC(C5)N6)nc(OCC56CCCN5CC(F)C6)nc4c3F)c12
viability, T/C [%]: 107

Compound: Nc1ccn(C2OC(CO)C(O)C2(F)F)c(=O)n1 (stereo unspecified) + C#Cc1c(F)ccc2cc(O)cc(-c3ncc4c(N5CC6CCC(C5)N6)nc(OCC56CCCN5CC(F)C6)nc4c3F)c12
viability, T/C [%]: 108

Compound: CCN1CCN(Cc2ccc(Nc3ncc(F)c(-c4cc(F)c5nc(C)n(C(C)C)c5c4)n3)nc2)CC1 + C#Cc1c(F)ccc2cc(O)cc(-c3ncc4c(N5CC6CCC(C5)N6)nc(OCC56CCCN5CC(F)C6)nc4c3F)c12
viability, T/C [%]: 121

Compound: C=CC(=O)N1CCN(c2nc(OCC3CCCN3C)nc3c(F)c(-c4nc(N)cc(C)c4C(F)(F)F)c(Cl)cc23)C(C)C1 (stereo unspecified) + C#Cc1c(F)ccc2cc(O)cc(-c3ncc4c(N5CC6CCC(C5)N6)nc(OCC56CCCN5CC(F)C6)nc4c3F)c12
viability, T/C [%]: 106

Compound: CC(C)n1nc(-c2ccc3oc(N)nc3c2)c2c(N)ncnc21 + C#Cc1c(F)ccc2cc(O)cc(-c3ncc4c(N5CC6CCC(C5)N6)nc(OCC56CCCN5CC(F)C6)nc4c3F)c12
viability, T/C [%]: 91.8

-- ask Given C=CC(=O)Nc1cc(Nc2nccc(-c3cn(C)c4ccccc34)n2)c(OC)cc1N(C)CCN(C)C + C=CC(=O)N1CCN(c2nc(OCC3CCCN3C)nc3c(F)c(-c4nc(N)cc(C)c4C(F)(F)F)c(Cl)cc23)C(C)C1 , respond with its viability, T/C.
-- reply 105

-- ask Give the reported viability, T/C for this compound. O=C(c1ccc(F)c(F)c1Nc1ccc(I)cc1F)N1CC(O)([C@@H]2CCCCN2)C1 + C#Cc1c(F)ccc2cc(O)cc(-c3ncc4c(N5CC6CCC(C5)N6)nc(OCC56CCCN5CC(F)C6)nc4c3F)c12
-- reply 87

-- ask Respond only with viability, T/C recorded for CC(C)n1nc(-c2ccc3oc(N)nc3c2)c2c(N)ncnc21 + C=CC(=O)N1CCN(c2nc(OCC3CCCN3C)nc3c(F)c(-c4nc(N)cc(C)c4C(F)(F)F)c(Cl)cc23)C(C)C1
-- reply 121

-- ask In one line, give reported viability, T/C of the entry Nc1ccn(C2OC(CO)C(O)C2(F)F)c(=O)n1 (stereo unspecified) + C=CC(=O)N1CCN(c2nc(OCC3CCCN3C)nc3c(F)c(-c4nc(N)cc(C)c4C(F)(F)F)c(Cl)cc23)C(C)C1 .
-- reply 100

-- ask Output measured viability, T/C for this item: O=C(c1ccc(F)c(F)c1Nc1ccc(I)cc1F)N1CC(O)([C@@H]2CCCCN2)C1 + C=CC(=O)N1CCN(c2nc(OCC3CCCN3C)nc3c(F)c(-c4nc(N)cc(C)c4C(F)(F)F)c(Cl)cc23)C(C)C1
-- reply 94.6

---

# Tested on: 966289-007-R4-J1-PDC complex spheroid viability
# Method description: Anticancer human tumor 966289-007-R4-J1-PDC cell line growth inhibition [RAS];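 note: spheroids exposed to agents for one week before readout; percent viability relative to DMSO vehicle control wells as 100%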
# Measurement conditions: second compound 0.0316 µM; first compound 3.16 µM; stronger effect = lower value
Measurement type: viability, T/C

Molecule: CC1(O)CCCC1n1c(=O)c(C(F)F)cc2cnc(NC3CCN(S(C)(=O)=O)CC3)nc21 (centres undefined) + C=CC(=O)N1CCN(c2nc(OCC3CCCN3C)nc3c(F)c(-c4nc(N)cc(C)c4C(F)(F)F)c(Cl)cc23)C(C)C1
Measurement type: viability, T/C
Value measured: 26.2%
//
Molecule: CC(C)NCC(C(=O)N1CCN(c2ncnc3c2C(C)CC3O)CC1)c1ccc(Cl)cc1 (centres undefined) + C=CC(=O)N1CCN(c2nc(OCC3CCCN3C)nc3c(F)c(-c4nc(N)cc(C)c4C(F)(F)F)c(Cl)cc23)C(C)C1
Measurement type: viability, T/C
Value measured: 67.2%
//
Molecule: CC1(O)CCCC1n1c(=O)c(C(F)F)cc2cnc(NC3CCN(S(C)(=O)=O)CC3)nc21 (centres undefined) + C#Cc1c(F)ccc2cc(O)cc(-c3ncc4c(N5CC6CCC(C5)N6)nc(OCC56CCCN5CC(F)C6)nc4c3F)c12
Measurement type: viability, T/C
Value measured: 32.1%

Next molecule, viability, T/C to be filled in.
-- ask # return recorded viability, T/C for input CC(=O)OC12COC1CC(O)C1(C)C(=O)C(O)C3=C(C)C(OC(=O)C(O)C(NC(=O)OC(C)(C)C)c4ccccc4)CC(O)(C(OC(=O)c4ccccc4)C21)C3(C)C (centres undefined) + C#Cc1c(F)ccc2cc(O)cc(-c3ncc4c(N5CC6CCC(C5)N6)nc(OCC56CCCN5CC(F)C6)nc4c3F)c12
-- reply 50.5%
